All values here come from PubChem BioAssay (NCI).

- Tested on: NCI-H522 lung
- protocol.notes: NCI-60 one-dose screen, 48 h
- study.conditions: 10 µM unless noted
Compounds without any hit were thinned out: in the full panel of roughly 83,000, 20% have a hit. Active and inactive are the calls of the source. How the source made its calls: active means growth percent below 10; inactive means the rest.
Outcomes: 1 for active, 0 for inactive

O=Cc1c(OCc2cnnn2CC(=O)Nc2ccc(Br)cc2)ccc2ccccc12
0
CN1CCN(Cc2ccc(C(=O)Nc3cncc(C#Cc4cnc5cccnn45)c3)cc2C(F)(F)F)CC1
0
CCOC(=O)C1=CN(C)C=C(C(=O)OCC)C1c1cc(Br)c(OCC)c(OC)c1
0
O=c1oc2ccc(F)cc2c(=O)n1-c1ccc(Cl)cc1F
1
O=C(N/N=C/c1ccccc1O)C(=O)Nc1ccc(F)cc1
0
COc1ccc(-c2nc(-c3ccccc3)c(-c3ccccc3)[nH]2)cc1OC1CCCCC1
0
Cc1ccc(F)cc1NC(=O)c1cc(Cl)ccc1Nc1ccccc1
0
COc1cccc(C(=O)Cn2cc(/C=C(\C#N)S(=O)(=O)c3ccccc3)c3ccccc32)c1
0
c1ccc2cc3c(Nc4ccc(N5CCOCC5)cc4)ccnc3cc2c1
0
O=C(NCc1ccco1)C1CN(c2ccc(Cl)cc2)N(c2ccc(Cl)cc2)C1=O (stereo not given)
0

----------
Measured growth accompanies every entry in the list below.
- Tested on: 786-0 renal
- protocol.notes: NCI-60 one-dose screen, 48 h (100 = growth as untreated, 0 = no growth, -100 = all killed)
- study.conditions: 10 µM unless noted
This is part of a sample that, as a whole, favours compounds with a hit. Of some 83,000 tested, about 20% had one in any assay. Active and inactive are the calls of the source. The calls were made as follows: active = growth percent below 10; inactive = the rest.
recorded.metric: growth

Nc1ccc(-c2nn3c(CCC(=O)c4nc5ncccc5[nH]4)nnc3s2)c(O)c1
99.2% (inactive)
O=C(Nc1ccc(Cl)cc1)c1cc2ccccc2cc1OP(=O)(O)O
20.6% (inactive)
O=C(c1ccccc1)N(CCc1ccc(Cl)cc1)C(=S)N(C(=O)c1ccccc1)c1ccccc1
97.6% (inactive)
Cc1sc2ncn(CC(=O)Nc3ccc(S(N)(=O)=O)cc3)c(=O)c2c1C
101% (inactive)
CCOC(=O)C1=C(C)N=c2s/c(=C\c3ccccc3O)c(=O)n2C1c1ccc(OC)c2ccccc12 (stereo not given)
36% (inactive)
COc1ccc(OC)c(N(CCN2C(=O)c3ccccc3C2=O)C(=O)CCl)c1
38.6% (inactive)
Nc1ncnc(N)c1NC(=O)c1ccc(OCc2ccccc2)cc1
104% (inactive)
COc1ccc(-c2cn[nH]c2-c2ccc(OC)c(O)c2)cc1
92.5% (inactive)
COc1cccc(/C(C#N)=C/c2nc3c(N4CCOCC4)nc(Cl)nc3n2C)c1
-69.4% (active)
CCOC(=O)c1cc2c(n1Cc1cccc(OC)c1)-c1oncc1CCC2
51.7% (inactive)

----------
- Test system: RXF 393 renal
- protocol.notes: NCI-60 one-dose screen, 48 h (100 = growth as untreated, 0 = no growth, -100 = all killed)
- study.conditions: 10 µM unless noted
This is part of a sample that, as a whole, favours compounds with a hit. Of some 83,000 tested, about 20% had one in any assay.
The class of a record is decided solely by its measured growth; consult small value (below 20%), mid value (20% to below 90%), large value (90% or more)

CC(=O)c1ccc2oc(=O)n(Cc3ccc(C#N)cc3)c(=O)c2c1
large value
Clc1ncccc1Nc1ccc2nnc(-c3ccncc3)n2n1
large value
O=c1oc2ccc(I)cc2c(=O)n1-c1ccc(Br)cc1F
small value
O=C(NCc1ccco1)C1CN(c2ccc(Cl)cc2)N(c2ccc(Cl)cc2)C1=O (stereo unspecified)
mid value
O=C(Nc1ccc(Cl)cc1F)c1cc(Br)ccc1O
small value
CCCCc1ccc(NS(=O)(=O)c2cc3c4c(c2)CCN4C(=O)CC3)cc1
mid value
COc1ccc(Br)c(/C=C2\SC(=Nc3ccc(O)cc3)NC2=O)c1
mid value
CC1(C)CC2(C)OC2C2(C1)N=NC(=Nc1ccccc1)O2 (stereo unspecified)
small value
CCN1CCN(C(=S)SCC(=O)Nc2nc3ccc(C)cc3s2)CC1
large value

----------
- Test system: NCI-H322M lung
- protocol.notes: NCI-60 one-dose screen, 48 h (100 = growth as untreated, 0 = no growth, -100 = all killed)
- study.conditions: 10 µM unless noted
- Description: Growth inhibition of the NCI-H322M human Non-Small Cell Lung tumor cell line is measured as a screen for anti-cancer activity. Cells are grown in 96 well plates and exposed to the test compound for 48 hours. Compounds are tested at a single concentration, which is 10^-5 M for most compounds. The reported endpoint is percent growth (GI% or GIPRCNT), where numbers from 0 - 100% represent growth inhibition, and numbers from -100% - 0 represent cell death. […]
This is part of a sample that, as a whole, favours compounds with a hit. Of some 83,000 tested, about 20% had one in any assay.
growth overview
recorded.metric: growth (%)

COc1ccc(/C=C2\CCC/C(=C\c3ccc(OC)c(OC)c3)C2=O)cc1OC
45.4
COc1cc(/C=C2\CCC/C(=C\c3cc(CN4CCCCC4)c(O)c(OC)c3)C2=O)cc(CN2CCCCC2)c1O
85.9
S=C1CCCC(=S)N1
107
COc1cc(C(=O)NN=C2c3ccccc3-c3ccccc32)cc(OC)c1OC
54
CC(C)c1ccc(S(=O)(=O)NC(=O)NC2CCCC2)cc1
98
O=c1oc2ccc(Cl)cc2c(=O)n1-c1ccc(I)cc1F
6.37
O=Nc1c(O)ccc2ccccc12.O=Nc1c(O)ccc2ccccc12.O=Nc1c([O-])ccc2ccccc12.[Fe+3]
104
COc1cc(C(C)n2cc(-c3ccccc3)nn2)ccc1OC1CCCCC1 (stereo not given)
78.1
O=C(c1nc2ccccc2[nH]1)C1[C@@H](c2cccc(O)c2)C2CC3CCCCC3N2[C@@]12C(=O)Nc1cc(Cl)ccc12 (stereo not given in full)
61.6
CN(C)CCCNCc1ccc(-c2ccc(F)c(Cl)c2)o1
65

----------
growth reference
- System: NCI-H322M lung
- protocol.notes: NCI-60 one-dose screen, 48 h (100 = growth as untreated, 0 = no growth, -100 = all killed)
- study.conditions: 10 µM unless noted
The panel holds about 83,000 compounds, 20% with a hit somewhere; the sample as a whole holds those more often. The source made the active and inactive calls. How the source made its calls: active means growth percent below 10; inactive means the rest.
recorded.metric: growth

COc1ccc(OC)c(/C=C/C(=O)c2c(C)nc3ccccc3c2/C=C/c2ccccc2)c1
78.5% (inactive)
O=C1c2cc(I)ccc2Oc2cc([N+](=O)[O-])ccc2N1c1ccc(Cl)cc1F
93.4% (inactive)
CCCCCCCCCCOC(=O)c1ccccc1C(=O)OCCCC
108% (inactive)
CCN1C(=O)N(CC)C2C1NC(=S)N2/N=C/C=C/c1ccccc1OC (stereo not drawn)
43.9% (inactive)
O=S1(=O)N(Cc2ccccc2)[C@@H](Cc2ccccc2)[C@H](O)[C@H](O)[C@H](Cc2ccccc2)N1Cc1ccccc1
12.6% (inactive)
CN(C)CCNc1cc(-c2ccccc2)nc2ccccc12
8.29% (active)
Clc1ccc(COc2ccc(Nc3ncnc4onc(-c5ccccc5)c34)cc2)cc1
82.8% (inactive)
O=Cc1cc2ccccc2nc1Nc1nccs1
91.8% (inactive)
Cc1c(-c2csc(-n3nc(C(F)(F)F)cc3C(F)(F)F)n2)no[n+]1[O-]
98.8% (inactive)
Nc1ccc(C2c3ccccc3Oc3ccccc32)cc1
99.8% (inactive)
N#C/C(=C1\SC(=O)CN1c1ccccc1)c1nc2ccccc2s1
102% (inactive)
O=C(/C=C/c1ccc(Cl)cc1)c1ccc(Nc2nc(NCCO)nc(N3CCOCC3)n2)cc1
90.8% (inactive)
O=C(Nc1ccc(-c2nc3ccc(NC(=O)c4ccc(Cl)cc4)cc3[nH]2)cc1)c1ccc(Cl)cc1
10.4% (inactive)
O=S(=O)(c1ccc(NC(=S)NC23CC4CC(CC(C4)C2)C3)cc1)N1CCCCC1
102% (inactive)
COc1cc(C2C(C#N)=C(N)OC3=C2C(=O)c2ccccc2C3=O)cc(OC)c1OC (stereo not drawn)
48.1% (inactive)
CC(C)C[C@H](C(=O)N[C@H](C(N)=O)C(C)C)N1CC=CCN(OCc2ccccc2)S1(=O)=O
105% [2.5 µM] (inactive)
COc1cc(-c2c3c(c(Br)n2Cc2ccccc2)-c2nc(N)sc2CC3)cc(OC)c1OC
77.7% (inactive)
O=C(N=Nc1c(O)[nH]c2ccccc12)c1oc2ccccc2c1CN1CCN(c2ccccc2)CC1
33.2% (inactive)
O=C(CSc1ncccc1C(=O)O)Nc1ccc(Oc2ccccc2)cc1
99% (inactive)
COc1ccc(-c2nc(-c3ccccn3)c(-c3ccccn3)n2CC(C)C)cc1OC1CCCC1
9.32% (active)
COc1ccc(/C(C#N)=C/c2nc3c(N4CCOCC4)nc(Cl)nc3n2C)cc1OC
29.9% (inactive)
O=C(c1nc2ccccc2[nH]1)C1C(c2ccc([N+](=O)[O-])cc2)C2CC3CCCCC3N2[C@@]12C(=O)Nc1cc(Cl)ccc12 (stereo partly drawn)
47.6% (inactive)
OCCNc1nc(Nc2ccc(C3=NN(c4cc(Cl)cc(Cl)c4)C(c4ccc(C(F)(F)F)cc4)C3)cc2)nc(N2CCOCC2)n1 (stereo not drawn)
80.3% (inactive)
Clc1ccc(-c2nnc(COc3ccc(C4=NNC(c5ccco5)C4)cc3)o2)cc1 (stereo not drawn)
36.6% (inactive)
O=C(NN1C(=O)CSC1c1ccc(Cl)cc1)c1[nH]c2ccc(F)cc2c1-c1ccccc1 (stereo not drawn)
82.1% (inactive)
O=S1(=O)N(Cc2ccccc2)[C@@H](Cc2ccccc2)C2O[C@H]2[C@H](Cc2ccccc2)N1Cc1ccccc1 (stereo partly drawn)
84.9% (inactive)
N#C/C(=C\c1c(-c2ccccc2)[nH]c2ccccc12)C(=O)c1ccccc1
53.3% (inactive)
CN(C)c1ccc(/C=C/c2ccnc3c(O)cccc23)cc1
28.7% (inactive)
CN(CCc1ccccc1)C(=S)N(C(=O)c1ccc([N+](=O)[O-])cc1)c1ccc(Cl)cc1
102% (inactive)
COC(=O)/C(CCC=C(C)C)=C1\[C@@H](OC(C)=O)C[C@@]2(C)[C@H]1CC(=O)[C@H]1[C@@]3(C)CC[C@H](NCc4ccccc4)[C@@H](C)[C@@H]3CC[C@@]12C
103% (inactive)
COC(=O)C1=C(C)NC(C)=C(C(=O)OC)C(N2C(=O)CCC2=O)C1 (stereo not drawn)
91.2% (inactive)
O=C(c1ccccc1)N(C(=S)NCCc1ccc(Cl)cc1)c1ccc(Cl)cc1
75.9% (inactive)
COC(=O)/C(=C\c1c(-c2ccccc2)[nH]c2ccccc12)S(C)(=O)=O
63.8% (inactive)
O=C(c1ccccc1)N(CCc1ccc(Cl)cc1)C(=S)N(C(=O)c1ccccc1)c1ccccc1
111% (inactive)
COc1cccc(C(=O)NC(c2ccc(C)cc2)c2cc(Cl)c3cccnc3c2O)c1 (stereo not drawn)
9.1% (active)
COc1ccc(/C=C/C(=O)c2c(C)nc3ccccc3c2/C=C/c2ccccc2)c(OC)c1
89.3% (inactive)
CC1=C(C(=O)OCC2CCN(C(=O)OC(C)(C)C)CC2)[C@@H](c2cccc(C#N)c2)C2=C(CC(C)(C)CC2=O)N1
57.1% (inactive)
O=Cc1c(OCc2cnnn2CC(=O)Nc2ccc(Cl)cc2)ccc2ccccc12
102% (inactive)
